Hi! I'm sharing some IC50 results obtained with DPP-IV from porcine kidney (Sus scrofa).
Sequence (P22411 whole entry): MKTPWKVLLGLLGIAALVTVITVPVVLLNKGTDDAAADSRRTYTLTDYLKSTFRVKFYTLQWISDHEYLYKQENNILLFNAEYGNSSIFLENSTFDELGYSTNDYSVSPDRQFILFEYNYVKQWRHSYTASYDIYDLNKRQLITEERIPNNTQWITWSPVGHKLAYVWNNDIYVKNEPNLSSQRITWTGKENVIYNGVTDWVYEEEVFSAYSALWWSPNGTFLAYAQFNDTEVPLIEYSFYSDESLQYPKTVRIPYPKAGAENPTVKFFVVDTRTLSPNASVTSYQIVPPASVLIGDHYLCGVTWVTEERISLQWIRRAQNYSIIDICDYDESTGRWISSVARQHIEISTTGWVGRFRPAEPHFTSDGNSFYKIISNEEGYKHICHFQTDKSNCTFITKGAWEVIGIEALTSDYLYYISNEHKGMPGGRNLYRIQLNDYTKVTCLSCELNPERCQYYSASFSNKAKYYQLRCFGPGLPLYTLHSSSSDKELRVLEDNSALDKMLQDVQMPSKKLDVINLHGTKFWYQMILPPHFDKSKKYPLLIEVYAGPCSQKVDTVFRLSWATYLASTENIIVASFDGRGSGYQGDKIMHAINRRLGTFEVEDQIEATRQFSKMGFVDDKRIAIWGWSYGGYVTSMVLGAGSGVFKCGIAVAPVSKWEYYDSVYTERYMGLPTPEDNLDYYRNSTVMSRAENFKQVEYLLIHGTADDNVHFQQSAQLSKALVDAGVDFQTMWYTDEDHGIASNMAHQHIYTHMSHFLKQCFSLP
Where a name gives a salt, the structure may show the parent alone.
ENDPOINT NAME: IC50 (nM)

N#Cc1ccc(Oc2ccc3[nH]cc(C[C@H](N)C(=O)N4CSC[C@@H]4C#N)c3c2)nc1 [Example 33, Trifluoroacetic acid salt]	3.5
N#C[C@@H]1C[C@H](F)CN1C(=O)[C@@H](N)Cc1c[nH]c2ccc(Oc3ccc([N+](=O)[O-])cc3)cc12 [Example 28, Trifluoroacetic acid salt]	1.5
N#C[C@@H]1CCCN1C(=O)[C@@H](N)Cc1c[nH]c2ccc(Oc3ccc([N+](=O)[O-])cn3)cc12 [Example 4, Trifluoroacetic acid salt]	1.32
N#Cc1cccnc1Oc1ccc2[nH]cc(C[C@H](N)C(=O)N3CSC[C@@H]3C#N)c2c1 [Example 32, Trifluoroacetic acid salt]	6.3

[a] N#Cc1cccnc1Oc1ccc2[nH]cc(C[C@H](N)C(=O)N3C[C@@H](F)C[C@H]3C#N)c2c1 [Example 27, Trifluoroacetic acid salt]
[b] N#Cc1ccc(Oc2ccc3[nH]cc(C[C@H](N)C(=O)N4CCC[C@H]4C#N)c3c2)nc1 [Example 6, Trifluoroacetic acid salt]
Request: // returns a or b , whichever has the lower IC50 Output the label that corresponds to your choice.
Response: b

====

target: DPP-IV from porcine kidney (Sus scrofa)
pIC50: −log10 of the molar value. Where a name gives a salt, the structure may show the parent alone.
ENDPOINT NAME: pIC50

N#C[C@H]1CSCN1C(=O)[C@@H](N)Cc1c[nH]c2ccc(Oc3ccc([N+](=O)[O-])cn3)cc12 [Example 35, Trifluoroacetic acid salt]	8.43

[P] N#Cc1ccc(Oc2ccc3[nH]cc(C[C@H](N)C(=O)N4C[C@@H](F)C[C@H]4C#N)c3c2)nc1 [Example 30, Trifluoroacetic acid salt]
[Q] N#C[C@H]1CSCN1C(=O)[C@@H](N)Cc1c[nH]c2ccc(Oc3ccc([N+](=O)[O-])cc3)cc12 [Example 34, Trifluoroacetic acid salt]
Request: // returns P or Q , whichever has the lower pIC50 Output the label that corresponds to your choice.
Response: P
